Each recorded value in this set is attributed to ChEMBL document CHEMBL1147101.

System: Pseudomonas aeruginosa
Test: Antimicrobial activity against Pseudomonas aeruginosa 2A7 tracheal isolates from mechanically ventilated tuberculosis patient
Type: functional, organism-based
Conditions: Trachea
The source made the active and inactive calls. The rule behind the calls is not given here.
Output constraint: value belongs to yes (1) = active, no (0) = inactive

[in] Hello, I am checking results. What call was entered for `CCn1cc(C(=O)O)c(=O)c2cc(F)c(N3CCNCC3)cc21` ?
[out] yes (1)

[in] What about `CC(C)(O/N=C(\C(=O)N[C@@H]1C(=O)N2C(C(=O)[O-])=C(C[n+]3ccccc3)CS[C@H]12)c1csc(N)n1)C(=O)O` ?
[out] no (0)

[in] What about `NC[C@H]1O[C@H](O[C@H]2[C@H](O)[C@@H](O[C@H]3O[C@H](CO)[C@@H](O)[C@H](N)[C@H]3O)[C@H](N)C[C@@H]2N)[C@H](N)C[C@@H]1O` ?
[out] yes (1)

[in] What about `C[C@@H](O)[C@H]1C(=O)N2C(C(=O)O)=C(S[C@@H]3CN[C@H](C(=O)N(C)C)C3)[C@H](C)[C@H]12` ?
[out] no (0)

[in] What about `O=C(O)c1cn(C2CC2)c2cc(N3CCNCC3)c(F)cc2c1=O` ?
[out] yes (1)

[in] What about `NCC[C@H](O)C(=O)N[C@@H]1C[C@H](N)[C@@H](O[C@H]2O[C@H](CN)[C@@H](O)[C@H](O)[C@H]2O)[C@H](O)[C@H]1O[C@H]1O[C@H](CO)[C@@H](O)[C@H](N)[C@H]1O` ?
[out] no (0)

[in] What about `C[C@H]1[C@H](NC(=O)/C(=N\OC(C)(C)C(=O)O)c2csc(N)n2)C(=O)N1S(=O)(=O)O` ?
[out] no (0)

[in] What about `CO/N=C(\C(=O)N[C@@H]1C(=O)N2C(C(=O)[O-])=C(C[N+]3(C)CCCC3)CS[C@H]12)c1csc(N)n1` ?
[out] no (0)

[in] What about `CCN[C@@H]1C[C@H](N)[C@@H](O[C@H]2OC(CN)=CC[C@H]2N)[C@H](O)[C@H]1O[C@H]1OC[C@](C)(O)[C@H](NC)[C@H]1O` ?
[out] no (0)

[in] What about `C[C@@H](O)[C@H]1C(=O)N2C(C(=O)O)=C(SCCNC=N)C[C@H]12` ?
[out] no (0)

[in] What about `CCN1CCN(C(=O)N[C@@H](C(=O)N[C@@H]2C(=O)N3[C@@H]2SC(C)(C)[C@@H]3C(=O)O)c2ccccc2)C(=O)C1=O` ?
[out] no (0)

---

Tested on: Pseudomonas aeruginosa
Assay: Antimicrobial activity against Pseudomonas aeruginosa 2A9 tracheal isolates from mechanically ventilated tuberculosis patient
Assay type: functional, organism-based
Conditions: Trachea
Calls of active or inactive are those of the source. The calls are words filed in the database; no cut-off is given here.
Output constraint: value belongs to active, inactive

[in] Hello, I am checking results. What call was entered for `NC[C@H]1O[C@H](O[C@H]2[C@H](O)[C@@H](O[C@H]3O[C@H](CO)[C@@H](O)[C@H](N)[C@H]3O)[C@H](N)C[C@@H]2N)[C@H](N)C[C@@H]1O` ?
[out] active

[in] What about `NCC[C@H](O)C(=O)N[C@@H]1C[C@H](N)[C@@H](O[C@H]2O[C@H](CN)[C@@H](O)[C@H](O)[C@H]2O)[C@H](O)[C@H]1O[C@H]1O[C@H](CO)[C@@H](O)[C@H](N)[C@H]1O` ?
[out] inactive

[in] What about `C[C@H]1[C@H](NC(=O)/C(=N\OC(C)(C)C(=O)O)c2csc(N)n2)C(=O)N1S(=O)(=O)O` ?
[out] inactive

[in] What about `CCn1cc(C(=O)O)c(=O)c2cc(F)c(N3CCNCC3)cc21` ?
[out] active

[in] What about `CCN[C@@H]1C[C@H](N)[C@@H](O[C@H]2OC(CN)=CC[C@H]2N)[C@H](O)[C@H]1O[C@H]1OC[C@](C)(O)[C@H](NC)[C@H]1O` ?
[out] inactive

[in] What about `O=C(O)c1cn(C2CC2)c2cc(N3CCNCC3)c(F)cc2c1=O` ?
[out] active

[in] What about `C[C@@H](O)[C@H]1C(=O)N2C(C(=O)O)=C(S[C@@H]3CN[C@H](C(=O)N(C)C)C3)[C@H](C)[C@H]12` ?
[out] inactive

[in] What about `CCN1CCN(C(=O)N[C@@H](C(=O)N[C@@H]2C(=O)N3[C@@H]2SC(C)(C)[C@@H]3C(=O)O)c2ccccc2)C(=O)C1=O` ?
[out] inactive

[in] What about `C[C@@H](O)[C@H]1C(=O)N2C(C(=O)O)=C(SCCNC=N)C[C@H]12` ?
[out] inactive

[in] What about `CC(C)(O/N=C(\C(=O)N[C@@H]1C(=O)N2C(C(=O)[O-])=C(C[n+]3ccccc3)CS[C@H]12)c1csc(N)n1)C(=O)O` ?
[out] inactive
